- Tested on: active human caspase-3 in AR+LNCaP cells
- ASSAY: Detection of active Caspase 3 in AR+LNCaP cell lysates (Invitrogen Elisa kit)
- Format: cell-based
- Parameters: unit not given here
- ASSAY_SETUP: supplement ELISA read-out, average of two wells
Label 1.0 when Caspase 3 Conc. (Average) is at or above 300; otherwise label 0.0.

Examples from the recorded data:
{"COMPOUND": "O=C1NC(=S)NC1=Cc1cn(-c2ccc(F)cc2)nc1-c1ccc(Br)cc1", "TGT": "active human caspase-3 in AR+LNCaP cells", "ASSIGNED_CLASS": 1.0}
{"COMPOUND": "O=C1NC(=S)NC1=Cc1cn(-c2ccc(F)cc2)nc1-c1ccc(Cl)cc1", "TGT": "active human caspase-3 in AR+LNCaP cells", "ASSIGNED_CLASS": 1.0}
{"COMPOUND": "O=C1NC(=S)NC1=Cc1cn(-c2ccc(F)cc2)nc1-c1ccc(C(F)(F)F)cc1", "TGT": "active human caspase-3 in AR+LNCaP cells", "ASSIGNED_CLASS": 1.0}
{"COMPOUND": "O=C1NC(=S)NC1=Cc1cn(-c2ccc(C(F)(F)F)cc2)nc1-c1ccc(C(F)(F)F)cc1", "TGT": "active human caspase-3 in AR+LNCaP cells", "ASSIGNED_CLASS": 1.0}
{"COMPOUND": "CNC(=O)c1ccc(N2C(=S)N(c3ccc(C#N)c(C(F)(F)F)c3)C(=O)C2(C)C)cc1F [Enzalutamide, reference compound]", "TGT": "active human caspase-3 in AR+LNCaP cells", "ASSIGNED_CLASS": 1.0}

Answer whether Caspase 3 Conc. (Average) of O=C1NC(=S)NC1=Cc1cn(-c2ccc(C(F)(F)F)cc2)nc1-c1ccc(F)cc1 is greater than or equal to 300.
0.0

Answer whether Caspase 3 Conc. (Average) of Cc1ccc(-c2nn(-c3ccc(F)cc3)cc2C=C2NC(=S)NC2=O)cc1 is greater than or equal to 300.
0.0

###

- Test system: Wi38 normal human lung fibroblast cell line
- ASSAY: MTT cytotoxicity assay in presence of 1 nM DHT, 48 h incubation
- Format: cell-based
- ASSAY_SETUP: WI-38, read-out: IC50 Wi38
READOUT_KIND: CC50
Write the numeric value and append its unit.

{"MOL_SMILES": "O=C1NC(=S)NC1=Cc1cn(-c2ccc(F)cc2)nc1-c1ccc(Br)cc1", "CC50": "21.1 µM"}
{"MOL_SMILES": "O=C1NC(=S)NC1=Cc1cn(-c2ccc(C(F)(F)F)cc2)nc1-c1ccc(C(F)(F)F)cc1", "CC50": "20.2 µM"}
{"MOL_SMILES": "O=C1NC(=S)NC1=Cc1cn(-c2ccc(F)cc2)nc1-c1ccc(Cl)cc1", "CC50": "21.9 µM"}
{"MOL_SMILES": "O=C1NC(=S)NC1=Cc1cn(-c2ccc(F)cc2)nc1-c1ccc(C(F)(F)F)cc1", "CC50": "19.8 µM"}
{"MOL_SMILES": "Cc1ccc(-c2nn(-c3ccc(F)cc3)cc2C=C2NC(=S)NC2=O)cc1", "CC50": "23.3 µM"}

Okay, now this molecule:
# get_value(readout='CC50', item= O=C1NC(=S)NC1=Cc1cn(-c2ccc(C(F)(F)F)cc2)nc1-c1ccc(F)cc1 )
22.4 µM

###

- Tested on: AR+LNCaP androgen-sensitive human prostate cancer cell line
- ASSAY: MTT in vitro cytotoxicity assay, 24 h incubation
- Assay type: cell-based
- ASSAY_SETUP: Homo sapiens, MTT
READOUT_KIND: IC50 (µM)
Answers are plain numbers, in µM.

// worked examples, IC50 included
{"MOLECULE": "O=C1NC(=S)NC1=Cc1cn(-c2ccccc2)nc1-c1ccc(Br)cc1 [Compound 3c]", "TGT": "AR+LNCaP androgen-sensitive human prostate cancer cell line", "IC50 [µM]": 110}
{"MOLECULE": "COc1cccc2c1C(=O)c1c(O)c3c(c(O)c1C2=O)C[C@@](O)(C(=O)CO)C[C@@H]3O[C@H]1C[C@H](N)[C@H](O)[C@H](C)O1 [Doxorubicin, reference compound]", "TGT": "AR+LNCaP androgen-sensitive human prostate cancer cell line", "IC50 [µM]": 11.4}
{"MOLECULE": "Nc1ccc(-c2nn(-c3ccccc3)cc2C=C2NC(=S)NC2=O)cc1 [Compound 3g]", "TGT": "AR+LNCaP androgen-sensitive human prostate cancer cell line", "IC50 [µM]": 47.3}
{"MOLECULE": "O=C1NC(=S)NC1=Cc1cn(-c2ccc(F)cc2)nc1-c1ccc(Br)cc1 [Compound 3j]", "TGT": "AR+LNCaP androgen-sensitive human prostate cancer cell line", "IC50 [µM]": 13.9}
{"MOLECULE": "Cc1ccc(-c2nn(-c3ccc(F)cc3)cc2C=C2NC(=S)NC2=O)cc1 [Compound 3m]", "TGT": "AR+LNCaP androgen-sensitive human prostate cancer cell line", "IC50 [µM]": 13}
{"MOLECULE": "COc1ccc(-c2nn(-c3ccc(F)cc3)cc2C=C2NC(=S)NC2=O)cc1 [Compound 3n]", "TGT": "AR+LNCaP androgen-sensitive human prostate cancer cell line", "IC50 [µM]": 15}
{"MOLECULE": "O=C1NC(=S)NC1=Cc1cn(-c2ccc(F)cc2)nc1-c1ccc(F)cc1 [Compound 3h]", "TGT": "AR+LNCaP androgen-sensitive human prostate cancer cell line", "IC50 [µM]": 19.5}
{"MOLECULE": "O=C1NC(=S)NC1=Cc1cn(-c2ccc(C(F)(F)F)cc2)nc1-c1ccc(F)cc1 [Compound 3o]", "TGT": "AR+LNCaP androgen-sensitive human prostate cancer cell line", "IC50 [µM]": 12.7}
{"MOLECULE": "O=C1NC(=S)NC1=Cc1cn(-c2ccccc2)nc1-c1ccc(F)cc1 [Compound 3a]", "TGT": "AR+LNCaP androgen-sensitive human prostate cancer cell line", "IC50 [µM]": 26.6}
{"MOLECULE": "O=C1NC(=S)NC1=Cc1cn(-c2ccccc2)nc1-c1ccccc1 [Compound 3e]", "TGT": "AR+LNCaP androgen-sensitive human prostate cancer cell line", "IC50 [µM]": 33.9}

Hello, I would appreciate it if you could give IC50 for each entry below.
1. O=C1NC(=S)NC1=Cc1cn(-c2ccc(C(F)(F)F)cc2)nc1-c1ccc(C(F)(F)F)cc1 [Compound 3p]
2. O=C1NC(=S)NC1=Cc1cn(-c2ccccc2)nc1-c1ccc(Cl)cc1 [Compound 3b]
3. O=C1NC(=S)NC1=Cc1cn(-c2ccc(F)cc2)nc1-c1ccc(Cl)cc1 [Compound 3i]
4. Cc1ccc(-c2nn(-c3ccccc3)cc2C=C2NC(=S)NC2=O)cc1 [Compound 3f]

[12.1, 20.8, 12.1, 54.2]

Hello, I would appreciate it if you could give IC50 for each entry below.
1. O=C1NC(=S)NC1=Cc1cn(-c2ccc(F)cc2)nc1-c1ccc(C(F)(F)F)cc1 [Compound 3k]
2. O=C1NC(=S)NC1=Cc1cn(-c2ccccc2)nc1-c1ccc(C(F)(F)F)cc1 [Compound 3d]
3. O=C1NC(=S)NC1=Cc1cn(-c2ccc(F)cc2)nc1-c1ccccc1 [Compound 3l]

10.3
23.5
20.8

This collection of values is drawn from paper PMC11274643.
